Target: T1, TIAR (nucleolysin TIAR, TIAL-1) (human, UniProt Q01085 1-375)
T1 sequence: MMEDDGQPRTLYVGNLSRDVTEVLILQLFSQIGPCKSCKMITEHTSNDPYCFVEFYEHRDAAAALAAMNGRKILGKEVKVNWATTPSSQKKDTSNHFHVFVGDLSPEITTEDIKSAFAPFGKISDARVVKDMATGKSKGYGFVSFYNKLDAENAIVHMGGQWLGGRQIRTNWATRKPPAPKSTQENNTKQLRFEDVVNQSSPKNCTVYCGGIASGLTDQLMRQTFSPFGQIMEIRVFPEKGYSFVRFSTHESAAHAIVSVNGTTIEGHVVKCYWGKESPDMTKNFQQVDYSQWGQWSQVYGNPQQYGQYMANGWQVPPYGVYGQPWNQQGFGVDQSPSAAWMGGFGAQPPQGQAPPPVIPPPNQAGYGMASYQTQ
Experiment: EMSA; densitometry of free probe; sequential shifts, prefers two and four copies; EMSA: ~2 fmol probe in 20 ul, 10 mM HEPES pH 7.3, 20 mM KCl, 1 mM MgCl2 (printed Mg2Cl2), 1 mM DTT, 30 ng/ul BSA, 0.01% NP-40, 5% glycerol, room temperature 30
Conditions: protein: commercial; hairpin (predicted)

# BINDER, Kd
records = [
    ("PHAROH 71-nt hairpin (WT) (structured_RNA) RNA: GAGAGGAUGCCACUGUUUUGAACUAUUUUGAAGGCACAGCCACCAGAGCUUUAGGGACAGGGUAUUUUAUC", "~2 nM"),
]
